- measurement.target: Kir1.1 (ROMK1) (Homo sapiens (Human))
- Sequence (P48048 whole entry, species assumed): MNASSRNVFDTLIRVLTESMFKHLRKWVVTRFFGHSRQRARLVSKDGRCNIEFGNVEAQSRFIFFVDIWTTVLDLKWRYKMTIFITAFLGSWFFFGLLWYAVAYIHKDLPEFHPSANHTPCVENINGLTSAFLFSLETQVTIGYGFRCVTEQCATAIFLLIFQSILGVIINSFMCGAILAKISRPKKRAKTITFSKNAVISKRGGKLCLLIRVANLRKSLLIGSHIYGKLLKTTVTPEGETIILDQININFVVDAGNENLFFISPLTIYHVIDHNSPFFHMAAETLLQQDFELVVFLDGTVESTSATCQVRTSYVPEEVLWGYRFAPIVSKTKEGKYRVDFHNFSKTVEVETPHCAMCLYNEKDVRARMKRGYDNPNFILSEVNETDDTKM
- test.details: Electrophysiology Assay (whole cell voltage clamp, IonWorks Quattro)
- Type: cell-based
- particulars: Chinese hamster ovary cells stably expressing Kir1.1; block during voltage step to 0 mV; read-out: Electrophysiology IC50
assay.readout: IC50

Consider the following illustrative entries.
{"compound": "Cc1c([C@@H]2CN3CCN(CCc4ccc5c(c4)C[C@H](C)OC5=O)C[C@H]3CO2)ccc(F)c1C#N", "result": "0.05 µM"}
{"compound": "Cc1c([C@@H]2CN3CCN(CCc4ccc5c(c4)CC(C)OC5=O)C[C@H]3CO2)ccc2c1COC2=O (stereo partly shown)", "result": "0.12 µM"}
{"compound": "COc1cc(CCN2CCN3C[C@@H](c4ccc5c(c4C)COC5=O)NC[C@@H]3C2)ccc1C#N", "result": "0.1 µM"}
{"compound": "Cc1c([C@@H]2CN3CCN(CCc4ccc5c(c4C)COC5=O)C[C@H]3CO2)ccc(F)c1C#N", "result": "0.05 µM"}
{"compound": "COc1cc([C@@H]2CN3CCN(CCc4ccc5c(c4C)COC5=O)C[C@H]3CO2)ccc1C#N", "result": "0.2 µM"}

Asked: Return reported IC50; argument: COc1cc([C@H]2CN3CCN(CC(O)c4ccc5c(c4C)COC5=O)C[C@H]3CO2)ccc1C#N (stereo partly shown)
Given back: 0.08 µM

Asked: Return reported IC50; argument: Cc1c([C@@H](O)CN2CCN3C[C@H](c4ccc5c(c4C)COC5=O)SC[C@@H]3C2)ccc2c1COC2=O
Given back: 0.09 µM
